Test description: small-molecule microarray binders of probe aLefty2, primary screen, biochemical, biotinylated probe, 635/667 nm fluorescence (AID 1094);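 note: score merges spot fluorescence near 667 nm with spot signal-to-noise ratio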
Details: higher = more signal
Label rule met when composite z-score is at or above -0.05; anything below gets rule not met.

Compound	Label class
C[N+](C)(C)CCCCNC(=O)[C@H]1C[C@H]2C(=O)NCC(=O)N2[C@H]1c1cccc(OCCO)c1	rule met
Cc1ccc(S[C@]2(C(=O)NC(C)C)CC(=O)N(Cc3cc(C(F)(F)F)cc(C(F)(F)F)c3)[C@@H]2c2ccc(CO)cc2I)cc1	rule not met
CN1C(=O)C2C=CC(C(O)C3CC=CCC3)N(Nc3ccccc3)C2C1=O (configuration not stated)	rule met
C=C(COC)C(=O)CC[C@H](OC(=O)c1ccccc1-c1ccccc1C(=O)O)c1cccc(OCCO)c1	rule not met
C=CCOC(=O)[C@@H]1[C@H]2C(=O)O[C@H](c3ccccc3)[C@H](c3ccccc3)N2[C@H](c2ccc(OCCOC(=O)[C@H]3C[C@H]4C(=O)N5CCC[C@H]5C(=O)N4[C@H]3c3ccc(O)cc3)cc2)[C@@]12C(=O)Nc1ccccc12	rule met
C=C(CCCC)C(=O)CC[C@@H](OC(=O)c1cccnc1)c1cccc(OCCO)c1	rule not met

// switching to the query compound
Quick check: does `O=C(CS)NCCCCCNC(=O)[C@H]1C[C@H]2C(=O)N[C@@H](Cc3ccccc3)C(=O)N2[C@H]1c1ccc(O)cc1` have composite z-score greater than or equal to -0.05? rule not met

----------
Target: Follistatin (Homo sapiens)
Test description: follistatin binders on small-molecule microarrays, primary screen, biochemical, small-molecule microarray, 635/667 nm fluorescence (AID 1132)
Details: FST binding, 635 nm fluorescence, higher = more signal
Reported property: composite z-score
I only need the number, thanks.

Solved entries:
Compound	composite z-score
Cc1ccc(S[C@]2(C(=O)NC(C)C)CC(=O)N(Cc3cc(C(F)(F)F)cc(C(F)(F)F)c3)[C@@H]2c2ccc(CO)cc2I)cc1	0.623
CCCC=C(CCC)[C@@H](NS(=O)(=O)c1ccc(C(F)(F)F)cc1)c1ccc(-c2ccccc2)cc1	1.26
C[C@H]1NC(=O)[C@@H](C)NC(=O)[C@@]23C(=O)N[C@@H](Cc4ccccc4)C2[C@H](C)[C@@]2(C)O[C@H]2C3/C=C/C/C=C\CNC1=O (stereo not given in full)	0.117
CC(=O)Nc1ccc([C@H]2[C@H](C)CC[C@H]3C(=O)N4[C@@H](CC[C@@H](C)[C@@H]4c4ccc(NC(C)=O)cc4)C(=O)N32)cc1	1.19
COc1ccc(CCNC(=O)[C@@]2(c3ccc([N+](=O)[O-])cc3)CC(=O)N(C(C)C)[C@@H]2c2ccc(CO)cc2)cc1	-0.669
C[C@H]1COC(=O)[C@@H]2CCCN2C(=O)[C@@H](C)COC(=O)[C@@H]2CCCN2C1=O	0.0429
O=C1O[C@H](c2ccccc2)[C@H](c2ccccc2)N2[C@H]1[C@@H](C(=O)NC[C@H](O)c1ccccc1)[C@]1(C(=O)Nc3ccc(C#CC4=CCCCC4)cc31)[C@H]2c1ccc(OCCO)cc1	1.2
CCOC(=O)C[C@H]1[C@H](OC(=O)c2cc3ccccc3oc2=O)[C@@H](NC(=O)C2CCCCC2)c2cc(OCCCO)ccc2N1C(=O)c1ccc2ccccc2n1	1.13
COc1cc([C@@H]2N[C@H](C(=O)O)Cc3c2[nH]c2ccccc32)cc(OC)c1OC	0.275
C#CCCCON=C1C[C@@H](O)[C@@H](O)[C@@H]2[C@@H]3C(=O)N(Cc4ccc5c(c4)OCO5)C(=O)[C@@H]3CC[C@H]12	1.03

Given the entry `COC(=O)[C@@]1(Cc2ccccc2CN=[N+]=[N-])N=C(c2ccc(OCCCO)cc2)O[C@H]1c1ccccc1N=[N+]=[N-]` , report its measured composite z-score. 0.832

Given the entry `CC[C@@H]1C=C(C(=O)O)[C@H](c2ccccc2)N1S(=O)(=O)c1ccc([N+](=O)[O-])cc1` , report its measured composite z-score. 0.221

Given the entry `CC(=O)NCCCC[C@@H]1NC(=O)[C@@H]2C[C@H](C(=O)NCCCCCCN(C)C)[C@H](c3ccc(O)cc3)N2C1=O` , report its measured composite z-score. 1.34

Given the entry C#CCNC(/C=C/c1ccccc1)CO (stereo not given) , report its measured composite z-score. 0.362

Given the entry `C#C[C@H](O[Si](C#Cc1ccccc1)(C(C)C)C(C)C)c1ccccc1` , report its measured composite z-score. -0.89
